Test system: Plasmodium berghei
Experiment: Screen against P. berghei liver stage (PbLuc), transformed with Luciferase, at 10uM
Format: functional, HepG2
Conditions: tested at 10 uM
Hit rate of the full screen: of about 69,000 compounds, about 8,600 (12%) showed an effect of 50% or more. The list comes from a sample in which strong results are over-represented; it also holds close analogues and randomly drawn compounds.
quantity kind: INHIBITION (%)
Numbers only, in %.

// solved cases for INHIBITION follow
>>> df
                                   compound  measurement_target  numeric_readout
0  Cc1c(Cl)cccc1S(=O)(=O)N1C[C@H]2CC[C@@H](C1)N(C)C2=O  Plasmodium berghei            0.546
1   CC(C)(CN1CCCC1)CN1CCC(Cn2cc(CCO)nn2)CC1  Plasmodium berghei            -6.03
2  O=c1[nH]c2nc(NCC3CCCO3)ncc2c(=O)n1-c1ccc(F)cc1 (stereo not given)  Plasmodium berghei             88.8
3  CC(C)CCN1CCCC(Cn2cc(CCO)nn2)C1 (stereo not given)  Plasmodium berghei             6.69

Dear colleague, I am looking for the recorded INHIBITION of the following compound: O=C(N[C@@H]1CN(CCc2ccc(F)cc2)C[C@H]1O)c1cscn1
54.5
